target: RAC-alpha serine/threonine-protein kinase (Homo sapiens) (UniProt P31749); experiment: Covalent-allosteric inhibition of full length N-terminal his6-tagged AKT (2 to 446 residues) (unknown origin) expressed in Spodoptera frugiperda Sf9 cells assessed as kinact/ki ratio
Sequence (P31749 whole entry, the tested form may be a part): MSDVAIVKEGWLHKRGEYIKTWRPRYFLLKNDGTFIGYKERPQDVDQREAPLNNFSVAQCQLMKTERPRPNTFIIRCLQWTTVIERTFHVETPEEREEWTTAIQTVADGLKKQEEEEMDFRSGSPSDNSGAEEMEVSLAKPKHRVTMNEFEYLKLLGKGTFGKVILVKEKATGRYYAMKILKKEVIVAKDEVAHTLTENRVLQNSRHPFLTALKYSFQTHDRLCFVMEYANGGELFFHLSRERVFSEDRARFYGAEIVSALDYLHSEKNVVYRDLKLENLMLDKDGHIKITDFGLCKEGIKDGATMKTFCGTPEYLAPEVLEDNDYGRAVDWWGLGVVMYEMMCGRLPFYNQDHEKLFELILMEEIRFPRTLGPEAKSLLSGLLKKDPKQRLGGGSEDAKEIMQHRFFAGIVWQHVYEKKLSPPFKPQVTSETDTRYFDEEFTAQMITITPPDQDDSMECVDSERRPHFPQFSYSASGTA
Label 1.0 for high-side Ratio (at or above 0.04 µM⁻¹ s⁻¹) and 0.0 for low-side Ratio (below it).

Query :: Decide: is the reported value of Ratio for C=CC(=O)Nc1ccc2c(c1)n(C1CCN(Cc3ccc(-c4nc5cc[nH]c(=O)c5cc4-c4ccccc4)cc3)CC1)c(=O)n2C equal to or greater than 0.04 µM⁻¹ s⁻¹?
Result :: 1.0

====

molecular target: RAC-alpha serine/threonine-protein kinase (Homo sapiens) (UniProt P31749); assay: Covalent-allosteric inhibition of full length N-terminal his6-tagged AKT (2 to 446 residues) (unknown origin) expressed in Spodoptera frugiperda Sf9 cells assessed as kinact
MEASUREMENT NAME: Kinact (min⁻¹)
Give bare numbers, in min⁻¹.

smiles_repr=C=CC(=O)Nc1ccc(C(=O)NC2CCN(Cc3ccc(-c4nc5cc[nH]c(=O)c5cc4-c4ccccc4)cc3)CC2)s1 numeric_value=0.088
smiles_repr=C=CC(=O)Nc1cccc(CNC2CCN(Cc3ccc(-c4nc5cc[nH]c(=O)c5cc4-c4ccccc4)cc3)CC2)c1 numeric_value=0.071
smiles_repr=C=CC(=O)Nc1ccccc1C(=O)NC1CCN(Cc2ccc(-c3nc4cc[nH]c(=O)c4cc3-c3ccccc3)cc2)CC1 numeric_value=0.138
smiles_repr=C=CC(=O)Nc1ccc(C(=O)NC2CCN(Cc3ccc(-c4nc5cc[nH]c(=O)c5cc4-c4ccccc4)cc3)CC2)cc1 numeric_value=0.042
smiles_repr=C=CC(=O)Nc1cc(Br)cc(C(=O)NC2CCN(Cc3ccc(-c4nc5cc[nH]c(=O)c5cc4-c4ccccc4)cc3)CC2)c1 numeric_value=0.078

// batch mode: one Kinact value per listed entry
1. CN(C)C/C=C/C(=O)Nc1ccc2[nH]c(=O)n(C3CCN(Cc4ccc(-c5nc6cc[nH]c(=O)c6cc5-c5ccccc5)cc4)CC3)c2c1
2. C=CC(=O)Nc1ccc2c(c1)n(C1CCN(Cc3ccc(-c4nc5cc[nH]c(=O)c5cc4-c4ccccc4)cc3)CC1)c(=O)n2C
3. C=CC(=O)Nc1ccc(C(=O)NC2CCN(Cc3ccc(-c4nc5cc[nH]c(=O)c5cc4-c4ccccc4)cc3)CC2)c(F)c1

Result ::
[0.05, 0.121, 0.085]

====

system: MCF7; assay: Antiproliferative activity against human MCF7 cells assessed as reduction in cell viability incubated for 5 days by celltiter-glo assay; assay type: functional, cell-based; settings: MCF7, 120 h
MEASUREMENT NAME: EC50
Could you write the number and then its unit?

Considering CN(C)C/C=C/C(=O)Nc1ccc2[nH]c(=O)n(C3CCN(Cc4ccc(-c5nc6cc[nH]c(=O)c6cc5-c5ccccc5)cc4)CC3)c2c1 , its EC50 with MCF7 was recorded as 20.3 µM

====

target: RAC-alpha serine/threonine-protein kinase (Homo sapiens) (UniProt P31749); assay: Covalent-allosteric inhibition of full length N-terminal his6-tagged AKT (2 to 446 residues) (unknown origin) expressed in Spodoptera frugiperda Sf9 cells assessed as kinact/ki ratio
// label = met if Ratio is not less than 0.04 µM⁻¹ s⁻¹, otherwise not met

Study these solved cases before continuing.
smiles_repr=C=CC(=O)Nc1ccc(C(=O)NC2CCN(Cc3ccc(-c4nc5cc[nH]c(=O)c5cc4-c4ccccc4)cc3)CC2)s1 class="not met"
smiles_repr=C=CC(=O)Nc1ccccc1C(=O)NC1CCN(Cc2ccc(-c3nc4cc[nH]c(=O)c4cc3-c3ccccc3)cc2)CC1 class=met
smiles_repr=C=CC(=O)Nc1ccc(C(=O)NC2CCN(Cc3ccc(-c4nc5cc[nH]c(=O)c5cc4-c4ccccc4)cc3)CC2)cc1 class="not met"
smiles_repr=CN(C)C/C=C/C(=O)Nc1ccc2[nH]c(=O)n(C3CCN(Cc4ccc(-c5nc6cc[nH]c(=O)c6cc5-c5ccccc5)cc4)CC3)c2c1 class="not met"
smiles_repr=C=CC(=O)Nc1ccc(C(=O)NC2CCN(Cc3ccc(-c4nc5cc[nH]c(=O)c5cc4-c4ccccc4)cc3)CC2)c(F)c1 class="not met"

Query :: Is it the case that C=CC(=O)Nc1cccc(CNC2CCN(Cc3ccc(-c4nc5cc[nH]c(=O)c5cc4-c4ccccc4)cc3)CC2)c1 has Ratio reaching or exceeding 0.04 µM⁻¹ s⁻¹?
Result :: not met

Query :: Would you say C=CC(=O)Nc1cc(Br)cc(C(=O)NC2CCN(Cc3ccc(-c4nc5cc[nH]c(=O)c5cc4-c4ccccc4)cc3)CC2)c1 shows Ratio at minimum 0.04 µM⁻¹ s⁻¹?
Result :: met
